- target_or_test_system: B-Raf kinase (Homo sapiens)
- Construct: GST (N); purchased Sigma
- Sequence (P15056 416-766): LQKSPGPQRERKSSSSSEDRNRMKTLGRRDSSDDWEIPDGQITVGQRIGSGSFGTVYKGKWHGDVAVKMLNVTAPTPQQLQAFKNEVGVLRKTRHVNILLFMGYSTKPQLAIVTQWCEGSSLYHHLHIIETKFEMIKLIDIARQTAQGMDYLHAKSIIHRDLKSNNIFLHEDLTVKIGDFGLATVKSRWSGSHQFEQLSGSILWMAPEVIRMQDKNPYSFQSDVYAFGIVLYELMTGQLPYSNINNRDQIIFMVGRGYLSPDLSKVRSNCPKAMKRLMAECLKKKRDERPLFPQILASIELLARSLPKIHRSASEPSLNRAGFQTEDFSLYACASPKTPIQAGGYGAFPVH
- assay_name: Biochemical assay for B-Raf.1 (coupled pyruvate kinase/lactate dehydrogenase)
- condition_summary: read-out: BRAF.1 IC50
Field: IC50. Provide a value for each of the compounds that follow.

Study these solved cases before continuing.
CNC(=O)c1cc(-c2cnnc(-c3cc(NC(=O)N4CC[C@@H](OC)C4)ccc3C)c2)ccn1 :: > 1000 nM
COC(=O)Nc1cc(-c2cc(-c3cc(NC(=O)N4CCC(C)(C)C4)cnc3C)ccn2)ccn1 :: 500 to 1000 nM
Cc1ccc(NC(=O)N[C@H]2C[C@](C)(F)C2)cc1-c1cc(OCCO)nc(-c2ccnc(NC(=O)CN(C)C)c2)c1 :: ≤ 100 nM

Quick one: give me IC50 for each item below, same order please.
1. Cc1ncc(NC(=O)NCCC2(C)CC2)cc1-c1ccnc(-c2ccnc(NC(=O)C3CC3)c2)c1
2. CNC(=O)c1cc(-c2cnnc(-c3cc(NC(=O)N4CC[C@H](OC)C4)cnc3C)c2)ccn1

Reply |
["≤ 100 nM", "> 1000 nM"]

Quick one: give me IC50 for each item below, same order please.
1. COC(=O)Nc1cc(-c2nccc(-c3cc(NC(=O)N4CCC(C(F)(F)F)C4)ccc3C)n2)ccn1 (stereo not shown)
2. COC(=O)Nc1cc(-c2cc(-c3cc(NC(=O)NCCC4(C)CC4)c(F)cc3C)cc(OCCO)n2)ccn1

Reply |
1. ≤ 100 nM
2. ≤ 100 nM

----------
- target_or_test_system: A-Raf kinase (Homo sapiens, UniProt P10398, Y301D/Y302D)
- Construct: purchased Sigma
- Sequence (P10398 with tags, fused parts or gaps Y301D/Y302D): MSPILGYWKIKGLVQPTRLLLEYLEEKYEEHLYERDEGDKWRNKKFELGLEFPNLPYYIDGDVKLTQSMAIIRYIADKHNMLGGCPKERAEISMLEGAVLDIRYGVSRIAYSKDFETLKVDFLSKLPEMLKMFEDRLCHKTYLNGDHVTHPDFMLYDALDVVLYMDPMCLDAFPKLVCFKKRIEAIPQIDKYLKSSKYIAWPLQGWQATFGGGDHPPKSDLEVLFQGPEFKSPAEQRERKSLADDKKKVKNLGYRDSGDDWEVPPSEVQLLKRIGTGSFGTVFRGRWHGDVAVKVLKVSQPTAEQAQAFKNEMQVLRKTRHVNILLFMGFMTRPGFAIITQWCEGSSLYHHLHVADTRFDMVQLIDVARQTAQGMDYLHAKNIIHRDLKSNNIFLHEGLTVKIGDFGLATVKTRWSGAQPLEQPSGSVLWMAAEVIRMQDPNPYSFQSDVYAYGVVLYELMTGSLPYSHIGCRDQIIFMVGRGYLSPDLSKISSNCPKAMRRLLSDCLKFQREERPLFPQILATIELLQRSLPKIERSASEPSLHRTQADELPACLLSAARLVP
- assay_name: Biochemical assay for A-Raf.1 (coupled pyruvate kinase/lactate dehydrogenase)
- condition_summary: read-out: ARAF.1 IC50
pIC50: −log10 of the molar value.
Field: pIC50. Provide a value for each of the molecules that follow.

Study these solved cases before continuing.
CC(=O)Nc1cc(-c2cc(-c3cc(NC(=O)NCCC4(C)CC4)ccc3C)cc(N3CCOCC3)n2)ccn1 [Example 57] :: 6.00 to 6.30
COC[C@H]1CCN(C(=O)Nc2cc(-c3cc(-c4ccnc(NC(=O)OC)c4)cnn3)c(C)cc2F)C1 [Example 148] :: < 6.00
Cc1cc(F)c(NC(=O)N2CCC(C)(C#N)CC2)cc1-c1cc(OCCO)nc(-c2ccnc3[nH]ncc23)c1 [Example 92] :: < 6.00
Cc1cc(F)c(NC(=O)NC[C@H]2CCO2)cc1-c1cc(OCCO)nc(-c2ccnc3[nH]ncc23)c1 [Example 93] :: < 6.00

Quick one: give me pIC50 for each item below, same order please.
1. Cc1cc(F)c(NC(=O)NCCC(C)(C)C)cc1-c1cc(OCCO)nc(C2CCOCC2)c1 [Example 9]
2. Cc1cc(F)c(NC(=O)NC2CC(C)(C)C2)cc1-c1cc(OCCO)nc(-c2ccnc(NC(=O)C3CC3)c2)n1 [Example 167]
3. COC(=O)Nc1cc(-c2cncc(-c3cc(NC(=O)N4CC[C@H](C(F)(F)F)C4)ccc3C)c2)ccn1 [Example 211]
4. COC(=O)Nc1cc(-c2nccc(-c3cc(NC(=O)NCCC(C)(C)OC)c(F)cc3C)n2)ccn1 [Example 129]
5. Cc1cc(F)c(NC(=O)NCCC2(C)CC2)cc1-c1cc(OCCO)nc(-c2ccnc3[nH]ncc23)c1 [Example 87]
6. COC(=O)Nc1cc(-c2cc(-c3cc(NC(=O)NCCC4(C)CC4)cnc3C)cc(OCCO)n2)ccn1 [Example 151]
7. COC[C@H]1CCN(C(=O)Nc2cnc(C)c(-c3ccnc(-c4ccnc(NC(=O)OC)c4)c3)c2)C1 [Example 176]
8. Cc1cc(F)c(NC(=O)NCCC(C)(C)C)cc1-c1cc(OCCO)nc(C2=CCOCC2)c1 [Example 7]

Reply |
< 6.00
6.00 to 6.30
< 6.00
< 6.00
6.00 to 6.30
< 6.00
< 6.00
< 6.00

----------
Field: IC50. Provide a value for each of the molecules that follow.
- Tested on: A375 cells
- assay_name: A375 cell proliferation assay (1), resazurin, 96-well
- Assay type: cell-based
- condition_summary: Homo sapiens, A-375, inhibition of cell proliferation

CC(=O)Nc1cc(-c2cc(-c3cc(NC(=O)NCCC(C)(C)C#N)c(F)cc3C)cc(C3CC3)n2)ccn1 :: 1 to 10 µM
Cc1cc(F)c(NC(=O)NCCC(C)(C)C)cc1-c1cc(N2CCOCC2)nc(N2CCOCC2)c1 :: 0.1 to 0.5 µM
COC(=O)Nc1cc(-c2cc(-c3cc(NC(=O)NCCC(C)(C)C)cnc3C)ccn2)ccn1 :: 1 to 10 µM
Cc1cc(F)c(NC(=O)NCCC2(C)CC2)cc1-c1nc(NCCO)cc(N2CCOCC2)n1 :: 1 to 10 µM
Cc1cc(F)c(NC(=O)NCCC2(C)CC2)cc1-c1ccnc(-c2ccnc(NC(=O)C3CC3)c2)c1 :: 1 to 10 µM

Quick one: give me IC50 for each item below, same order please.
1. Cc1cc(F)c(NC(=O)NCCC(C)(C)C)cc1-c1cc(OCCO)nc(C2=CCOCC2)c1
2. CNC(=O)c1cc(-c2cnnc(-c3cc(NC(=O)N4CC[C@H](OC)C4)ccc3C)c2)ccn1
3. Cc1cc(F)c(NC(=O)NCCC(C)(C)F)cc1-c1ccnc(-c2ccnc(NC(=O)C3CC3)c2)n1

Reply |
1 to 10 µM
1 to 10 µM
1 to 10 µM

----------
Field: pIC50. Provide a value for each of the compounds that follow.
- System: A375 cells
- assay_name: A375 cell proliferation assay (1), resazurin, 96-well
- Assay type: cell-based
- condition_summary: Homo sapiens, A-375, inhibition of cell proliferation
pIC50: −log10 of the molar value.

Quick one: give me pIC50 for each item below, same order please.
1. CNC(=O)c1cc(-c2cnnc(-c3cc(NC(=O)NCCC(C)(C)F)c(F)cc3C)c2)ccn1
2. COC(=O)Nc1cc(-c2nc(OCCO)cc(-c3cc(NC(=O)NC4CC(C)(C)C4)c(F)cc3C)n2)ccn1
3. Cc1ncc(NC(=O)NC2CC(C)(C)C2)cc1-c1cc(OCCO)nc(-c2ccnc(NC(=O)C3CC3)c2)n1
4. COC(=O)Nc1cc(-c2nccc(-c3cc(NC(=O)NCCC4(OC)CC4)c(F)cc3C)n2)ccn1

Reply |
["5.00 to 6.00", "≥ 7.00", "6.00 to 6.30", "5.00 to 6.00"]

Quick one: give me pIC50 for each item below, same order please.
1. Cc1ccc(NC(=O)N2CCC(CC(F)(F)F)C2)cc1-c1cncc(-c2cc(NC(=O)C3CC3)ncn2)c1 (stereo not drawn)
2. Cc1ccc(NC(=O)N2CC[C@H](C(F)(F)F)C2)cc1-c1cccc(-c2cc(NC(=O)C3CC3)ncn2)c1
3. Cc1cc(F)c(NC(=O)NCCC2(C)CC2)cc1-c1cccc(-c2cc(NC(=O)C3CC3)ncn2)c1
4. CNC(=O)c1cc(-c2cnnc(-c3cc(NC(=O)NCCC(C)(C)OC)cnc3C)c2)ccn1
5. Cc1ccc(NC(=O)NCCC(C)(C)C#N)cc1-c1cc(-c2cnn(C)c2)nc(N2CCOCC2)c1
6. COC(C)(C)CCNC(=O)Nc1cnc(C)c(-c2cc(-c3ccnc(NC(=O)C4CC4)c3)cnn2)c1

Reply |
1. ≥ 7.00
2. 6.30 to 7.00
3. 5.00 to 6.00
4. 5.00 to 6.00
5. 5.00 to 6.00
6. 5.00 to 6.00

Quick one: give me pIC50 for each item below, same order please.
1. Cc1cc(F)c(NC(=O)NCCC2(C)CC2)cc1-c1cc(OCCO)nc(-c2ccnc3[nH]ncc23)c1
2. COC(C)(C)CCNC(=O)Nc1cc(-c2cnnc(-c3ccnc(NC(=O)C4CC4)c3)c2)c(C)cc1F

Reply |
1. 6.30 to 7.00
2. 6.00 to 6.30

Quick one: give me pIC50 for each item below, same order please.
1. Cc1ncc(NC(=O)NCCC2(C)CC2)cc1-c1cc(OCCO)nc(-c2ccnc(NC(=O)C3CC3)c2)c1
2. Cc1cc(F)c(NC(=O)NC2CCC(F)(F)CC2)cc1-c1cc(-c2cnn(C)c2)nc(N2CCOCC2)c1
3. Cc1ncc(NC(=O)NCCC2(C)CC2)cc1-c1cc(OCCO)nc(-c2ccnc3c2CC(=O)N3)c1

Reply |
1. 6.30 to 7.00
2. 5.00 to 6.00
3. 5.00 to 6.00

----------
- target_or_test_system: B-Raf (V600E) kinase (Homo sapiens, UniProt P15056, V600E)
- Construct: B-Raf (V600E) residues 416-766 with a; GST (N); purchased SignalChem
- Sequence (P15056 416-766 V600E): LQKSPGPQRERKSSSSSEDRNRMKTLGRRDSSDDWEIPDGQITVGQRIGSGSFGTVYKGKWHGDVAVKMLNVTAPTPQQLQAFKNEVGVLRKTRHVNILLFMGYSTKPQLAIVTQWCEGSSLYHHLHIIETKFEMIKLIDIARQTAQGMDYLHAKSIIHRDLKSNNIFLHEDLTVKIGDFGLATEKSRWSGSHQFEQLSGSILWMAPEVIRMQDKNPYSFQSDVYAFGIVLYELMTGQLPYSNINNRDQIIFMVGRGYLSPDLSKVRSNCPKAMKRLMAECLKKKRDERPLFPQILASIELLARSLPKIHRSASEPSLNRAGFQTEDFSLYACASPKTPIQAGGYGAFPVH
- assay_name: Biochemical assay for B-Raf (V600E).1 (coupled pyruvate kinase/lactate dehydrogenase)
- condition_summary: read-out: BRAF V600E.1 IC50
pIC50: −log10 of the molar value.
assay_metric: pIC50

Study these solved cases before continuing.
COC(=O)Nc1cc(-c2cnnc(-c3cccc(NC(=O)N4CC[C@@H](OC)C4)c3)c2)ccn1 [Example 199] :: < 6.00
CC(=O)Nc1cc(-c2cc(-c3cc(NC(=O)NCCCC(F)(F)F)c(F)cc3C)cc(C3CC3)n2)ccn1 [Example 58] :: ≥ 7.00
Cc1ccc(NC(=O)N2CC[C@@H](C(F)(F)F)C2)cc1-c1cccc(-c2cc(NC(=O)C3CC3)ncn2)c1 [Example 201] :: ≥ 7.00
CCNC(=O)Nc1cc(-c2cc(OCCO)nc(-c3ccnc(NC(=O)C4CC4)c3)c2)c(C)cc1F [Example 98] :: ≥ 7.00
Cc1ncc(NC(=O)NC[C@H](O)C(C)(C)C)cc1-c1ccnc(-c2ccnc(NC(=O)C3CC3)c2)c1 [Example 102] :: ≥ 7.00
COC(C)(C)CCNC(=O)Nc1cc(-c2ccnc(-c3ccnc(NC(=O)C4CC4)c3)c2)c(F)cc1F [Example 162] :: ≥ 7.00
Cc1cc(F)c(NC(=O)Nc2cnn(C(C)(C)C)c2)cc1-c1cc(OCCN(C)C)nc(N2CCOCC2)c1 [Example 29] :: ≥ 7.00
COC(=O)Nc1cc(-c2cc(-c3cc(NC(=O)N4CCC(C(C)(C)O)C4)cnc3C)ccn2)ccn1 (stereo not drawn) [Example 212] :: < 6.00
Cc1ncc(NC(=O)N2CCOCC2)cc1-c1cccc(-c2cc(NC(=O)C3CC3)ncn2)c1 [Example 74] :: 6.30 to 7.00
Cc1cc(F)c(NC(=O)NC[C@H]2CCO2)cc1-c1cc(OCCO)nc(-c2ccnc3[nH]ncc23)c1 [Example 93] :: < 6.00

Quick one: give me pIC50 for each item below, same order please.
1. CC(=O)Nc1cc(-c2cc(-c3cc(NC(=O)NCCC(C)(C)C(F)(F)F)c(F)cc3C)cc(C3CC3)n2)ccn1 [Example 56]
2. COC1(CCNC(=O)Nc2cc(-c3cc(-c4cnn(C)c4)nc(N4CCOCC4)c3)c(C)cc2F)CC1 [Example 35]
3. COC(=O)Nc1cc(-c2cc(-c3cc(NC(=O)NCCC(C)C)c(F)cc3C)cc(OCCO)n2)ccn1 [Example 115]
4. COC(=O)Nc1cc(-c2nc(OCCO)cc(-c3cc(NC(=O)NCCC(C)(C)F)c(F)cc3C)n2)ccn1 [Example 161]
5. COC(=O)Nc1cc(-c2cc(-c3cc(NC(=O)NCCC4(C)CC4)c(F)cc3C)cc(OCCO)n2)ccn1 [Example 77]

Reply |
≥ 7.00
≥ 7.00
≥ 7.00
≥ 7.00
≥ 7.00
